- TESTED ON: T1, recombinant human ASM protein (human, UniProt P17405 47-630)
- T1 construct: Recombinant human ASM in solution; also called acid sphingomyelinase (ASM) protein
- T1 sequence: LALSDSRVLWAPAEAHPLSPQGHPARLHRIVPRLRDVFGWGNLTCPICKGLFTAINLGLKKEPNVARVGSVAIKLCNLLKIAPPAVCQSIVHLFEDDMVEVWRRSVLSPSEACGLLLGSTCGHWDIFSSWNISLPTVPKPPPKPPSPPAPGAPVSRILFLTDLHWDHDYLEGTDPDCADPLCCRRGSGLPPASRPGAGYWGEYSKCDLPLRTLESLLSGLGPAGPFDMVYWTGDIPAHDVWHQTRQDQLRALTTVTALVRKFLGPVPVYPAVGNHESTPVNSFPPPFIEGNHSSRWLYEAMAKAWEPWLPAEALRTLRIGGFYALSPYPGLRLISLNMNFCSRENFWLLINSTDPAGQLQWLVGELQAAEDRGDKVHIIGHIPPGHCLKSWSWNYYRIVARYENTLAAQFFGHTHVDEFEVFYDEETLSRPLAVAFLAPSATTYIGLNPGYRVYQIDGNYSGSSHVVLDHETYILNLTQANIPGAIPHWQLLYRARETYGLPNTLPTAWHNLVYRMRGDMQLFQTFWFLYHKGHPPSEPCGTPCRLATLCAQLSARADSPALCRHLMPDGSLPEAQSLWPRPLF
- ASSAY SUMMARY: BLI (Octet), antibody on AHC sensor
pKd values for the binders below.
On this scale, pKd is minus log10 of a concentration expressed in M (mol/L).

Quickly give me recorded pKd for #9104v-H33 (antibody, human IgG4 S228P, lambda, V domains shown, Full-length IgG, lambda) VH: EVQLLESGGGLVQPGGSLRLSCAASGFTFSNYYMSWVRQAPGKGLEWVSGVYYPSGNPYYADSVKGRFTISRDNSKNTLYLQMNSLRAEDTAVYYCARDTPGFDYWGQGTLVTVSS VL: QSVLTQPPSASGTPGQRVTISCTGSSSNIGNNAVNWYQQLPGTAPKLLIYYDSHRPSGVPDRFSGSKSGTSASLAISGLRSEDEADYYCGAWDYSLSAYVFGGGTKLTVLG
9.29
